The values you see were collected from patent US20040024024A1.

Target: Human recombinant MMP-1 (Homo sapiens, UniProt P03956)
Construct: made in house; host or cells: MMP-1-transfected HT-1080 cells (spent media)
Sequence (P03956 100-469): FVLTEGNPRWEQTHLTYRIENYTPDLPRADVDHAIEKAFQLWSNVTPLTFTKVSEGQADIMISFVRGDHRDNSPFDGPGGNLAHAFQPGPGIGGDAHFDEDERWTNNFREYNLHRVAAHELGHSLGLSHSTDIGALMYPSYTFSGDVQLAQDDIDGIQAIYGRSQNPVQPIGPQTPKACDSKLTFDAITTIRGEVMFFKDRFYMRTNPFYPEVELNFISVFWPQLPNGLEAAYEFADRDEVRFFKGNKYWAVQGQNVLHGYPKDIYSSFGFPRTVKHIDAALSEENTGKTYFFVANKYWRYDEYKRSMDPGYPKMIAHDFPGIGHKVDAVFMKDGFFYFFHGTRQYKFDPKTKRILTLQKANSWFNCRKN
Assay: In vitro MMP inhibition, IC50 determination (fluorogenic substrate I)
Format: biochemical
Conditions: value outside parenthesis
Metric Name: IC50

The following compounds have reported results that may help.
compound="O=C(NO)C1(S(=O)(=O)c2ccc(OCCCc3nc(-c4c(Cl)cccc4Cl)no3)cc2)CCOCC1 [Example 214]" value_measured="> 10 µM"
compound="O=C(NO)C1(S(=O)(=O)c2ccc(OCCCSc3nc4ccccc4s3)cc2)CCOCC1 [Example 288]" value_measured="> 10 µM"
compound="O=C(NO)C1(S(=O)(=O)c2ccc(OCCSc3nc4ccc(Cl)cc4o3)cc2)CCN(C2CC2)CC1 [Example 188]" value_measured="> 10 µM"

Note IC50 for the compound shown: COc1ccc(C(=O)C(O)CCOc2ccc(S(=O)(=O)C3(C(=O)NO)CCOCC3)cc2)cc1 (stereo not shown) [Example 184]
1.53 µM

###

Item-by-item account of pIC50
Target: Human recombinant MMP-2 (Homo sapiens, UniProt P08253)
Construct: made in house; host or cells: MMP-2-transfected p2AHT2 cells
Sequence (P08253 110-660): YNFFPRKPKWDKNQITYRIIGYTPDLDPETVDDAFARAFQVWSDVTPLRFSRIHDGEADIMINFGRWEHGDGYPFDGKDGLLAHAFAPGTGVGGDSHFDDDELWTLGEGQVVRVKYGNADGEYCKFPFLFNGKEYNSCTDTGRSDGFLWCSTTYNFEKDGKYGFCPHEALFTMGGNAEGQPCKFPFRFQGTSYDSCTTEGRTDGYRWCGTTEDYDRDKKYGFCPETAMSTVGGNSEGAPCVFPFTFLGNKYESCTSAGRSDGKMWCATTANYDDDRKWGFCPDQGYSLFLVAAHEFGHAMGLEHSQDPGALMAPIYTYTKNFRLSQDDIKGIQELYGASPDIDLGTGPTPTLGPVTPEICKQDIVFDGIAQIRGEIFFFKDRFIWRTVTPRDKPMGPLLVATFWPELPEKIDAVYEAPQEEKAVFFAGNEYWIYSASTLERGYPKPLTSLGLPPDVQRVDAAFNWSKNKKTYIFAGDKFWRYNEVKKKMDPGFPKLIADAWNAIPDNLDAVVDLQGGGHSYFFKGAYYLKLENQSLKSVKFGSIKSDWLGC
Test: In vitro MMP inhibition, IC50 determination (fluorogenic substrate I)
Format: biochemical
Conditions: value outside parenthesis
Method: Several hydroxamates and salts thereof were analyzed in in vitro assays to determine their ability to inhibit the MMP cleavage of peptide substrates. Inhibition (Ki) and IC50 constants were calculated from the assayed hydroxamate-MMP interactions. […] The assays from which the IC50 determinations were made were performed as follows. […] The assayed hydroxamate samples were, incubated in Microfluorrm White Plates (Dynatech, Chantilly, VA) and analyzed on a Perkin Elmer L550 plate reader (Norwalk, Conn.). […]
On this scale, pIC50 is minus log10 of a concentration expressed in M (mol/L).

chem_smiles=C[C@H]1C(=O)N(CCCOc2ccc(S(=O)(=O)C3(C(=O)NO)CCOCC3)cc2)C(=O)N1c1ccccc1 metric_name=pIC50 value_measured=6.48

Consider the molecule Cc1cc(C)nc(SCCOc2ccc(S(=O)(=O)C3(C(=O)NO)CCOCC3)cc2)n1 tested on Human recombinant MMP-2 (Homo sapiens, UniProt P08253); state its pIC50.
6.73

Consider the molecule O=C(NO)C1(S(=O)(=O)c2ccc(OCCc3cccc(-c4cccc(F)c4)c3)cc2)CCOCC1 tested on Human recombinant MMP-2 (Homo sapiens, UniProt P08253); state its pIC50.
6.25

Consider the molecule COCCN1CCC(C(=O)NO)(S(=O)(=O)c2ccc(OCCCn3nnc(-c4ccc(C(F)(F)F)cc4)n3)cc2)CC1 tested on Human recombinant MMP-2 (Homo sapiens, UniProt P08253); state its pIC50.
7.07

###

Item-by-item account of pIC50
Molecular target: Human recombinant MMP-13 (Homo sapiens, UniProt P45452)
Construct: made in house; host or cells: baculovirus / insect cells
Test: In vitro MMP inhibition, IC50 determination (fluorogenic substrate I)
Assay type: biochemical
Settings: value outside parentheses (Ki in parenthesis)
On this scale, pIC50 is minus log10 of a concentration expressed in M (mol/L).

The following molecules have reported results that may help.
molecule=CCOc1ccc2nc(SCCOc3ccc(S(=O)(=O)C4(C(=O)NO)CCOCC4)cc3)sc2c1 target="Human recombinant MMP-13 (Homo sapiens, UniProt P45452)" metric_name=pIC50 value_measured=7.80
molecule=O=C(NO)C1(S(=O)(=O)c2ccc(OCCC3CCCCC3)cc2)CCOCC1 target="Human recombinant MMP-13 (Homo sapiens, UniProt P45452)" metric_name=pIC50 value_measured=8.30
molecule=CN(C)c1ccc(C(=O)NCCCCOc2ccc(S(=O)(=O)C3(C(=O)NO)CCOCC3)cc2)cc1 target="Human recombinant MMP-13 (Homo sapiens, UniProt P45452)" metric_name=pIC50 value_measured=7.85
molecule=COc1ccc(C(=O)CCCCOc2ccc(S(=O)(=O)C3(C(=O)NO)CCOCC3)cc2)c(OC)c1 target="Human recombinant MMP-13 (Homo sapiens, UniProt P45452)" metric_name=pIC50 value_measured=9.00

Note pIC50 for the molecule shown: COC(C)CCOc1ccc(S(=O)(=O)C2(C(=O)NO)CCOCC2)cc1 (stereo not shown)
8.22

Note pIC50 for the molecule shown: COC(C)(C)CCCC(C)CCOc1ccc(S(=O)(=O)C2(C(=O)NO)CCOCC2)cc1 (stereo not shown)
8.52

Note pIC50 for the molecule shown: COc1ccc(OC)c(-c2nnc(CCCOc3ccc(S(=O)(=O)C4(C(=O)NO)CCOCC4)cc3)o2)c1
8.10

Note pIC50 for the molecule shown: Cc1ccc(C(=O)NCCCOc2ccc(S(=O)(=O)C3(C(=O)NO)CCOCC3)cc2)cc1C
8.62

Note pIC50 for the molecule shown: COc1ccc(SCC(C)(C)COc2ccc(S(=O)(=O)C3(C(=O)NO)CCOCC3)cc2)cc1
6.71

Note pIC50 for the molecule shown: COc1ccc(SCCCCOc2ccc(S(=O)(=O)C3(C(=O)NO)CCOCC3)cc2)cc1
9.30

Note pIC50 for the molecule shown: COc1cc2c(cc1OC)C(c1ccccc1)NC(C(=O)OCCCCOc1ccc(S(=O)(=O)C3(C(=O)NO)CCOCC3)cc1)C2 (stereo not shown)
7.70

Note pIC50 for the molecule shown: O=C(NO)C1(S(=O)(=O)c2ccc(OCCCS(=O)(=O)N3CCc4ccccc4C3)cc2)CCOCC1
8.59

Note pIC50 for the molecule shown: O=C(NO)C1(S(=O)(=O)c2ccc(OCCCSCc3cccc(OC(F)(F)F)c3)cc2)CCOCC1
8.70

Note pIC50 for the molecule shown: O=C(NCCCOc1ccc(S(=O)(=O)C2(C(=O)NO)CCOCC2)cc1)c1ccc2ccccc2c1O
8.70

Note pIC50 for the molecule shown: O=C(CCCCOc1ccc(S(=O)(=O)C2(C(=O)NO)CCOCC2)cc1)c1ccc2ccccc2c1
9.40

Note pIC50 for the molecule shown: CC(CCOc1ccc(S(=O)(=O)C2(C(=O)NO)CCOCC2)cc1)CC(C)(C)C (stereo not shown)
7.22

###

Biological target: Human recombinant MMP-2 (Homo sapiens)
Construct: made in house; host or cells: MMP-2-transfected p2AHT2 cells
Test: In vitro MMP inhibition, IC50 determination (fluorogenic substrate I)
Format: biochemical
Details: value outside parentheses (Ki in parenthesis)
# note: boundary value 10 nM maps to class 0; IC50 below it maps to class 1

molecule="COC(=O)CCCN(C)c1ccc(S(=O)(=O)C2(C(=O)NO)CCOCC2)cc1 [Example 458]" cat="class 0"
molecule="COc1cc2c(cc1OC)CN(CCCCOc1ccc(S(=O)(=O)C3(C(=O)NO)CCOCC3)cc1)C(C)C2 (centres unmarked) [Example 337]" cat="class 0"
molecule="COc1ccc(C(=O)NCCCCOc2ccc(S(=O)(=O)C3(C(=O)NO)CCOCC3)cc2)cc1 [Example 396]" cat="class 1"

State whether 10 nM exceeds IC50 recorded for O=C(NO)C1(S(=O)(=O)c2ccc(NCCCCc3ccccc3)cc2)CCOCC1 [Example 462] .
class 0

State whether 10 nM exceeds IC50 recorded for CC(C)(C)c1ccc(C(=O)CCCOc2ccc(S(=O)(=O)C3(C(=O)NO)CCOCC3)cc2)cc1 [Example 355] .
class 0

State whether 10 nM exceeds IC50 recorded for COc1ccc(OC)c(S(=O)(=O)NCC(CCl)Oc2ccc(S(=O)(=O)C3(C(=O)NO)CCOCC3)cc2)c1 (centres unmarked) [Example 485] .
class 0

State whether 10 nM exceeds IC50 recorded for CN(C)c1ccc(C(=O)NCCCCOc2ccc(S(=O)(=O)C3(C(=O)NO)CCOCC3)cc2)cc1 [Example 397] .
class 1

State whether 10 nM exceeds IC50 recorded for COc1ccc(S(=O)(=O)NCCCOc2ccc(S(=O)(=O)C3(C(=O)NO)CCOCC3)cc2)cc1 [Example 419] .
class 0

###

Biological target: Human recombinant MMP-9 (Homo sapiens)
Construct: made in house; host or cells: MMP-9-transfected HT1080 cells (spent media)
Sequence (P14780 107-707 limits assumed): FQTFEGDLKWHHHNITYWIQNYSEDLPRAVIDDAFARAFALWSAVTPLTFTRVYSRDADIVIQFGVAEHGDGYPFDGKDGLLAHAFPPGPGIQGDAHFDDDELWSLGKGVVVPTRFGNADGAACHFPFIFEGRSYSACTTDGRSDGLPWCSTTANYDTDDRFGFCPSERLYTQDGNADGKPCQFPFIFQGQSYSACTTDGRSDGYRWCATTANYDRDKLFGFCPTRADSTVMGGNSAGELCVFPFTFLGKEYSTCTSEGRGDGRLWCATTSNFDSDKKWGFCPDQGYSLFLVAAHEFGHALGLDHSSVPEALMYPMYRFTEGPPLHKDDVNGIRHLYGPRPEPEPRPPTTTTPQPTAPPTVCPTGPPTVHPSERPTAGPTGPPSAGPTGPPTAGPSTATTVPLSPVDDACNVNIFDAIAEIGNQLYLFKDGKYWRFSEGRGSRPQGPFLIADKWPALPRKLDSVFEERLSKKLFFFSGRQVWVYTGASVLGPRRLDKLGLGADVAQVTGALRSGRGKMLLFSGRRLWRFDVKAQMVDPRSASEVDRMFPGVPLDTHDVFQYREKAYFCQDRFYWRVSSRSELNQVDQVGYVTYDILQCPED
Test: In vitro MMP inhibition, IC50 determination (fluorogenic substrate I)
Format: biochemical
Settings: value outside parenthesis
Metric Name: IC50 (µM)
# number only, unit µM dropped from output

Consider the compound O=C(NO)C1(S(=O)(=O)c2ccc(OCCCc3cccc(-c4ccc(F)cc4)c3)cc2)CCN(C2CC2)CC1 tested on Human recombinant MMP-9 (Homo sapiens); state its IC50.
4.51

Consider the compound O=C(NO)C1(S(=O)(=O)c2ccc(OCCc3cccc(-c4ccncc4)c3)cc2)CCOCC1 tested on Human recombinant MMP-9 (Homo sapiens); state its IC50.
1.98

Consider the compound Cc1ccc(-c2nnc(CCCOc3ccc(S(=O)(=O)C4(C(=O)NO)CCOCC4)cc3)o2)c(C)c1 tested on Human recombinant MMP-9 (Homo sapiens); state its IC50.
1.82

Consider the compound O=C(NO)C1(S(=O)(=O)c2ccc(OCCCc3cccc(Cc4ccccc4)c3)cc2)CCOCC1 tested on Human recombinant MMP-9 (Homo sapiens); state its IC50.
2.42

Consider the compound O=C(NO)C1(S(=O)(=O)c2ccc(OCCCc3cccc(-c4cccnc4)c3)cc2)CCOCC1 tested on Human recombinant MMP-9 (Homo sapiens); state its IC50.
0.53

Consider the compound O=C(NO)C1(S(=O)(=O)c2ccc(OCCc3cccc(-c4ccc(F)c(F)c4)c3)cc2)CCOCC1 tested on Human recombinant MMP-9 (Homo sapiens); state its IC50.
7.67

Consider the compound CCCc1ccc(-c2nc(CCCOc3ccc(S(=O)(=O)C4(C(=O)NO)CCOCC4)cc3)oc2C)cc1 tested on Human recombinant MMP-9 (Homo sapiens); state its IC50.
0.127
